- system_under_test: BRD4 BD2 (Homo sapiens (Human))
- experiment_summary: NanoBRET bromodomain assay, NanoLuc-BRD4-BD2 fusion in HEK293 cells
- assay_setup: BRD4 BD2 (IC50), NanoBRET, HEK293 cells, top concentration 10 μM
measure_name: IC50

molecule | system_under_test | IC50
CNC(=O)c1[nH]c(C(=O)NCCC(F)(F)F)cc1O[C@@H](C)c1ccccc1 [Example 112] | BRD4 BD2 (Homo sapiens (Human)) | 200 to 1000 nM
CNC(=O)c1[nH]c(C(=O)NC2CC2)cc1O[C@@H](C)c1ccccc1F [Example 59] | BRD4 BD2 (Homo sapiens (Human)) | 50 to 200 nM
CNC(=O)c1[nH]c(C(=O)NC2CC2)cc1O[C@@H](C)c1ccc(Cl)cc1 [Example 62] | BRD4 BD2 (Homo sapiens (Human)) | < 50 nM

Measured IC50 for this entry CCCC(Oc1cc(C(=O)NCC)[nH]c1C(=O)NC)c1ccccc1 (racemic) [Example 16] on BRD4 BD2 (Homo sapiens (Human)): 200 to 1000 nM

---

- experiment_summary: Pharmacokinetics and plasma concentration of Example 101 in Lewis rats after oral administration (CIA study)
- Format: in vivo, Lewis rat
- assay_setup: Lewis, rat, plasma, oral, 3 mg/kg, Day 21, Group 5 (CIA), 3 mg/kg; read-out: Mean Plasma Concentration
measure_name: concentration at 21 day

For record CNC(=O)c1[nH]c(C(=O)NC2CCC2)cc1O[C@@H](C)c1ccccc1 (stereo in doubt) [Example 101] the listed concentration at 21 day is 59.1 ng/mL

---

- experiment_summary: Intrinsic clearance in liver microsomes, rat
- Assay type: in vitro ADME
- assay_setup: rat, liver microsomes, pH 7.4, rat liver microsomes, Method 2; read-out: Half-Life (T1/2) (min), Rat
Task for the reader: assign each of the following compounds its reported half-life at 1 μM.

Answered cases to consult:
compound | measure_name | measured_result
CCNC(=O)c1cc(OC(C)c2ccc(Br)cc2)c(C(=O)NC)[nH]1 (single isomer, unassigned) | half-life at 1 μM | > 60 min
CCNC(=O)c1cc(OC(C)c2c(F)cccc2F)c(C(=O)NC)[nH]1 (single isomer, unassigned) | half-life at 1 μM | > 60 min

For record CCNC(=O)c1cc(OC(c2ccccc2)c2ccccc2)c(C(=O)NC)[nH]1 the listed half-life at 1 μM is > 60 min

---

- experiment_summary: Beagle dog PK study 2 of Example 101 (HPβCD based formulation, IV), with clinical observations
- Format: in vivo
- assay_setup: beagle, dog, plasma, iv, 1 mg/kg, dog PK study 2, IV 1 mg/kg, HPβCD, 24 h, Test Animal 3
measure_name: concentration at 24 h
Report the figure along with its unit, number first.

For record CNC(=O)c1[nH]c(C(=O)NC2CCC2)cc1O[C@@H](C)c1ccccc1 (stereo in doubt) [Example 101] the listed concentration at 24 h is 0 ng/mL

---

- experiment_summary: Pharmacokinetics and plasma concentration of Example 101 in Lewis rats after oral administration (CIA study)
- Type: in vivo, Lewis rat
- assay_setup: Lewis, rat, plasma, oral, 10 mg/kg, plasma, oral, day 20, 10 mg/kg, 0.25 h; read-out: Mean Concentration
measure_name: concentration at 0.25 h (ng/mL)
One number for each entry, in ng/mL.

For record CNC(=O)c1[nH]c(C(=O)NC2CCC2)cc1O[C@@H](C)c1ccccc1 (stereo in doubt) the listed concentration at 0.25 h is 1410

---

- experiment_summary: Beagle dog PK study 1 of Example 101 (propylene glycol-based formulation, IV and PO), with clinical observations
- Format: in vivo
- assay_setup: beagle, dog, plasma, po, 5 mg/kg, dog PK study 1, oral, Test Animal 2
measure_name: half-life (h)
Give bare numbers, in h.

For record CNC(=O)c1[nH]c(C(=O)NC2CCC2)cc1O[C@@H](C)c1ccccc1 (stereo in doubt) the listed half-life is 1.15

---

- system_under_test: BRD4 BD2 (Homo sapiens (Human), UniProt O60885)
- experiment_summary: NanoBRET bromodomain assay, NanoLuc-BRD4-BD2 fusion in HEK293 cells;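 also: tracer displacement BRET read in transfected cells after 2 h compound exposure at 37 °C, signal in milliBRET units corrected against no-tracer background wells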
- assay_setup: BRD4 BD2 (IC50), NanoBRET, HEK293 cells, top concentration 10 μM
Task for the reader: assign each of the following compounds its reported IC50.

Answered cases to consult:
compound | IC50
CCNC(=O)c1cc(OC(C)c2c(C)cccc2C)c(C(=O)NC)[nH]1 (single isomer, unassigned) [Example 65] | > 10000 nM
CCNC(=O)c1cc(OC(C)c2cccc(OC)c2)c(C(=O)NC)[nH]1 (racemic) [Example 7] | 200 to 1000 nM
CNC(=O)c1[nH]c(-c2ncc(C)[nH]2)cc1O[C@@H](C)c1ccccc1F [Example 68] | < 50 nM
CCNC(=O)c1cc(OC(C)c2ccc(I)cc2)c(C(=O)NC)[nH]1 (single isomer, unassigned) [Example 52] | > 10000 nM
CCNC(=O)c1cc(OC(c2ccccc2)C(C)C)c(C(=O)NC)[nH]1 (racemic) [Example 77] | > 10000 nM
CNC(=O)c1[nH]c(-c2nc(C)c(C)[nH]2)cc1O[C@@H](C)c1ccccc1 [Example 87] | 50 to 200 nM
CCNC(=O)c1cc(OC(C)c2cccc(C#N)c2)c(C(=O)NC)[nH]1 (stereo not shown) [Example 4] | > 10000 nM
CCNC(=O)c1cc(OC(C)c2ccc(I)cc2)c(C(=O)NC)[nH]1 (single isomer, unassigned) [Example 51] | < 50 nM

Provide IC50 for all items below, preserving their order.
1. CCNC(=O)c1cc(OC(C)c2ccccc2F)c(C(=O)NC)[nH]1 (single isomer, unassigned) [Example 20]
2. CNC(=O)c1[nH]c(C(=O)NC23CC(C2)C3)cc1O[C@@H](C)c1ccccc1 [Example 117]
3. CNC(=O)c1[nH]c(-c2ncc[nH]2)cc1O[C@@H](C)c1ccccc1 [Example 89]
4. CCNC(=O)c1cc(OC(C)c2ccnnc2)c(C(=O)NC)[nH]1 (single isomer, unassigned) [Example 79]
5. CNC(=O)c1[nH]c(-c2cnn(C(C)C)c2)cc1O[C@@H](C)c1ccccc1 [Example 80]
6. CCNC(=O)c1cc(OC(C)c2ccc(F)c(F)c2)c(C(=O)NC)[nH]1 (racemic) [Example 12]
7. CCNC(=O)c1cc(OC(C)c2ccc(Cl)cc2F)c(C(=O)NC)[nH]1 (single isomer, unassigned) [Example 41]

["50 to 200 nM", "50 to 200 nM", "50 to 200 nM", "1000 to 10000 nM", "< 50 nM", "200 to 1000 nM", "200 to 1000 nM"]

For record CNC(=O)c1[nH]c(C(=O)NC2CCC2)cc1OC(C)c1ccc(Cl)cc1 (single isomer, unassigned) [Example 27] the listed IC50 is < 50 nM

---

- experiment_summary: Pharmacokinetics and plasma concentration of Example 101 in Lewis rats after oral administration (CIA study)
- Format: in vivo, Lewis rat
- assay_setup: Lewis, rat, plasma, po, 10 mg/kg, oral, day 20, 10 mg/kg, per test subject
measure_name: AUC(0-t) (ng·h/mL)
One number for each entry, in ng·h/mL.

For record CNC(=O)c1[nH]c(C(=O)NC2CCC2)cc1O[C@@H](C)c1ccccc1 (stereo in doubt) the listed AUC(0-t) is 8420

---

- experiment_summary: Beagle dog PK study 1 of Example 101 (propylene glycol-based formulation, IV and PO), with clinical observations
- Type: in vivo
- assay_setup: beagle, dog, plasma, iv, 1 mg/kg, dog PK study 1, intravenous, Test Animal 2
measure_name: AUC(0-inf) (ng·h/mL)
Answers are plain numbers, in ng·h/mL.

For record CNC(=O)c1[nH]c(C(=O)NC2CCC2)cc1O[C@@H](C)c1ccccc1 (stereo in doubt) [Example 101] the listed AUC(0-inf) is 1720

---

- experiment_summary: Beagle dog PK study 2 of Example 101 (HPβCD based formulation, IV), with clinical observations
- Assay type: in vivo
- assay_setup: beagle, dog, plasma, iv, 1 mg/kg, dog PK study 2, IV 1 mg/kg, HPβCD, 0.083 h, Test Animal 3; read-out: Plasma concentration
measure_name: concentration at 0.083 h

For record CNC(=O)c1[nH]c(C(=O)NC2CCC2)cc1O[C@@H](C)c1ccccc1 (stereo in doubt) the listed concentration at 0.083 h is 1580 ng/mL

---

- experiment_summary: Beagle dog PK study 2 of Example 101 (HPβCD based formulation, IV), with clinical observations
- Type: in vivo
- assay_setup: beagle, dog, plasma, iv, 1 mg/kg, dog PK study 2, IV 1 mg/kg, HPβCD, 4 h, Test Animal 1; read-out: Plasma concentration
measure_name: concentration at 4 h

For record CNC(=O)c1[nH]c(C(=O)NC2CCC2)cc1O[C@@H](C)c1ccccc1 (stereo in doubt) [Example 101] the listed concentration at 4 h is 4.83 ng/mL

Each recorded value in this set is attributed to patent US20250263370A1.
